experiment: Acute toxicity in mouse assessed as maximum tolerated dose; conditions: in vivo
Numbered stars: 1 amine (or outer) side, 2 acyl side, 3 side chain; on linkers, the order of the positions; unused ones are H or OH. Square brackets hold non-standard residues; d marks the D form. Peptide text beside a SMILES is read from it. * marks the point of attachment. X2 = CCC(=O)C[C@H](O)C[C@@H](C)C[C@H](N[*:1])C(=O)[*:2]; Leu(3R-OH) = CC(C)[C@@H](O)[C@H](N)C(=O)O; NH((S)CH(Me)CH2NMe2) = C[C@@H](CN(C)C)N*; Pro(4S-Me) = C[C@@H]1CN[C@H](C(=O)O)C1; X1 = CC[C@@H](C)/C=C/C(=O)*; Aib = CC(C)(N)C(=O)O; βAla = NCCC(=O)O
Each entry below carries its recorded MTD.
metric_name: MTD

# molecule, result
rows = [
    ("CC[C@@H](C)/C=C/C(=O)N1C[C@@H](C)C[C@H]1C(=O)N[C@@H](C)C(=O)N[C@H](C(=O)NC(C)(C)C(=O)N[C@@H](CC(C)C)C(=O)N[C@@H](CC(C)C)C(=O)NC(C)(C)C(=O)NC(C)(C)C(=O)NCCC(=O)N[C@@H](C)CN(C)C)[C@H](O)C(C)C (X1-[Pro(4S-Me)]A[Leu(3R-OH)][Aib]LL[Aib][Aib][βAla]-{NH((S)CH(Me)CH2NMe2)})", "12.5 mg/kg"),
    ("CCC(=O)C[C@H](O)C[C@@H](C)C[C@H](NC(=O)[C@@H]1C[C@H](C)CN1C(=O)/C=C/[C@H](C)CC)C(=O)N[C@H](C(=O)NC(C)(C)C(=O)N[C@@H](CC(C)C)C(=O)N[C@@H](CC(C)C)C(=O)NC(C)(C)C(=O)NC(C)(C)C(=O)NCCC(=O)N[C@@H](C)CN(C)C)[C@H](O)C(C)C (X1-[Pro(4S-Me)][X2][Leu(3R-OH)][Aib]LL[Aib][Aib][βAla]-{NH((S)CH(Me)CH2NMe2)})", "2.5 mg/kg"),
]

====

test: Antiproliferative activity against human Keratinocyte assessed as inhibition of cell proliferation incubated for 2 days by Beckman Coulter analysis; type: functional, cell-based; settings: 48 h
pEC50: −log10 of the molar value.

# compound, pEC50
measured = [
    ("CN1C(=O)C(Cc2ccccc2-c2ccccc2)N=C(c2ccc(O)cc2)c2cc(Cl)ccc21 (stereo not drawn)", 5.66),
    ("CN1C(=O)C(Cc2ccc3ccccc3c2)N=C(c2ccc3[nH]c(=O)[nH]c3c2)c2cc(Cl)ccc21 (stereo not drawn)", 5.68),
    ("CN1C(=O)C(Cc2ccc3ccccc3c2)N=C(c2ccc(O)cc2)c2cc(Cl)ccc21 (stereo not drawn)", 5.51),
]

Reference for the values: ChEMBL document CHEMBL5230122
